assay: Phase 1 multiple ascending dose (MAD) study Part 1, healthy volunteers (PK and safety); details: LYT-100 1000 mg BID with food
propertyMeasured: observed Cmax (ng/mL)

> print(dat)
                                   molecule  propertymeasured  observedresult
1  O=C(O)c1ccc(=O)n(-c2ccccc2)c1 [LYT-105, 5-carboxy-pirfenidone]     observed Cmax            4940

###

assay: Phase 1 multiple ascending dose (MAD) study Part 1, healthy volunteers (PK and safety); details: LYT-100 250 mg BID with food
propertyMeasured: observed Cmax (ng/mL)

> print(dat)
                                   compound  propertymeasured  observedresult
1  O=C(O)c1ccc(=O)n(-c2ccccc2)c1 [LYT-105, 5-carboxy-pirfenidone]     observed Cmax            1170
